- Tested on: OVCAR-4 ovarian
- Assay remarks: NCI-60 one-dose screen, 48 h (100 = growth as untreated, 0 = no growth, -100 = all killed)
- Condition info: 10 µM unless noted
Compounds without any hit were thinned out: in the full panel of roughly 83,000, 20% have a hit.
Measurement name: growth (%)
Give just the number in %; leave the unit off.

>>> experimental_value("Cc1[nH]c2ccccc2c1C1=CC(=O)C=CC1=O")
85.6
>>> experimental_value("N#Cc1ccc(-c2ccc(-c3cccs3)o2)cc1F")
77.5
>>> experimental_value("O=C1/C(=C/N2N=C(c3ccc(Cl)cc3)CC2c2ccccc2O)SC(=S)N1c1cccc(C(F)(F)F)c1 (stereo not given)")
37
>>> experimental_value("CCCCCCCCN=C(NCCCCCCCC)SCc1cccc2ccccc12")
-91.7
>>> experimental_value("O=C(N/N=C/c1ccc([N+](=O)[O-])o1)c1ccc(O)cc1")
42
>>> experimental_value("Nc1ncnc2c1N=C(c1ccc3c(c1)OCO3)CC(c1ccc(Cl)cc1)N2 (stereo not given)")
77.7
>>> experimental_value("O=C(N/N=C/c1ccc([N+](=O)[O-])cc1)c1ccccc1Nc1ccnc(C(F)(F)F)c1")
61.1
>>> experimental_value("CN(C)c1nc(-c2cccs2)n2nc(-c3ccc(Cl)cc3)cc2n1")
-39.5
>>> experimental_value("COc1ccc(-c2cc(C(=O)Nc3ccc(C)cc3)nc3[nH]c(=O)sc23)cc1")
71.7

Please look at the following compound next.
Entry "CCOC(=O)Nc1ccc2nc(N3CCCCCC3)sc2c1" has what growth?
57.5

###

- Test system: K-562 leukemia
- Assay remarks: NCI-60 one-dose screen, 48 h
- Condition info: 10 µM unless noted
Compounds without any hit were thinned out: in the full panel of roughly 83,000, 20% have a hit. Activity calls are given as the source filed them. The calls were made as follows: active = growth percent below 10; inactive = the rest.
Your response should consist of one outcome taken from True (active), False (inactive)

Past entries and their recorded results:
>>> assigned_label("O=C(/C=C/c1ccc(F)cc1)N1CCN(C(=O)/C=C/c2ccc(C(F)(F)F)cc2)CC1")
"False"
>>> assigned_label("CCCCCc1c(C)[nH]c(/C=C2\\N=C(c3ccc[nH]3)C=C2Oc2ccc(OC)cc2)c1C")
"True"
>>> assigned_label("Oc1ccccc1-c1nnc(COc2ccc(Cl)cc2Cl)o1")
"False"
>>> assigned_label("COc1cccc(NC(=O)OC(C)C)c1")
"False"

Fill in: this test's call for "C#Cc1cccc(Nc2nc3cc([N+](=O)[O-])ccc3nc2Nc2ccc(O)cc2)c1" is ___
True

###

- Test system: MDA-MB-435 melanoma
- Assay remarks: NCI-60 one-dose screen, 48 h
- Condition info: 10 µM unless noted
This is part of a sample that, as a whole, favours compounds with a hit. Of some 83,000 tested, about 20% had one in any assay. Calls of active or inactive are those of the source. How the source made its calls: active means growth percent below 10; inactive means the rest.
Your response should consist of one outcome taken from t = active, f = inactive

Past entries and their recorded results:
>>> assigned_label("O=C(Nc1ccccc1)c1cc2ccccc2s1")
"f"
>>> assigned_label("COc1cc(C2C(C#N)=C(N)Oc3cc4c(cc32)OCO4)cc2c1OCO2 (stereo unspecified)")
"t"
>>> assigned_label("O=C1CCCN1C1CCN2CCCc3cccc1c32 (stereo unspecified)")
"f"
>>> assigned_label("Nc1c(C(=O)C[C@@H](N)CO)ccc2c1C(=O)CCO2")
"f"

Fill in: this test's call for CCOC(=O)C1=C(C(=O)OCC)N(c2cc(OC)c(OC)c(OC)c2)C(N)=C(C#N)C1c1cc(=O)[nH]c2ccccc12 (stereo unspecified) is ___
f

Please give the result for "C#CCNc1nc(NCCNC(=O)CCl)nc(N(C)CCCCc2ccccc2)n1" too.
f
